tested on: Fibroblast; assay: Multiplex assay against human fibroblast; assay type: toxicity, cell-based; conditions: 48 h, 10 µM, compound concentration 10 uM, replicate 1
I'd be grateful if you could share measured Population Apoptotic (%) for these entries.
All answers are understood in %, so give the number only.

Name the reported Population Apoptotic (%) value associated with the molecule C[C@@H](NCCCc1cccc(C(F)(F)F)c1)c1cccc2ccccc12.Cl [CINACALCET HYDROCHLORIDE]
90

Name the reported Population Apoptotic (%) value associated with the molecule CCn1c(=O)c(-c2ccc(Cl)cc2Cl)cc2cnc(Nc3ccc(N4CCNCC4)c(F)c3)nc21
35

Name the reported Population Apoptotic (%) value associated with the molecule O=C1NCN(c2ccccc2)C12CCN(CCCOc1ccc(F)cc1)CC2 [SPIRAMIDE]
69

Name the reported Population Apoptotic (%) value associated with the molecule CC[C@H](C)C(=O)O[C@H]1C[C@@H](C)C=C2C=C[C@H](C)[C@H](CC[C@@H]3C[C@@H](O)CC(=O)O3)[C@H]21 [LOVASTATIN]
71

Name the reported Population Apoptotic (%) value associated with the molecule CN(C)C(=O)N[C@H]1CC[C@H](CCN2CCN(c3cccc(Cl)c3Cl)CC2)CC1.Cl [CARIPRAZINE HYDROCHLORIDE]
80

Name the reported Population Apoptotic (%) value associated with the molecule Cl.N#Cc1ccc2[nH]cc(CCCCN3CCN(c4ccc5oc(C(N)=O)cc5c4)CC3)c2c1 [VILAZODONE HYDROCHLORIDE]
50

Name the reported Population Apoptotic (%) value associated with the molecule Cc1c(-c2ccc(O)cc2)n(Cc2ccc(OCCN3CCCCCC3)cc2)c2ccc(O)cc12 [BAZEDOXIFENE]
85
